- measurement.notes: antimalarial activity against Dd2 strain (AID 2302)
- recorded.conditions: P. falciparum Dd2 in RBCs, LDH growth readout, 72 h; at 2 µM
Active and inactive are the calls of the source.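 Rule for the calls: active = growth inhibition above 50% at the single 2 µM test dose, taken to imply half-maximal potency below 2 µM; inactive = the rest.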
Possible outcomes: T = active, F = inactive

{"columns": ["structure", "discrete.label"],
 "data": [
  ["Cc1[nH]c(C)c(-c2ccc(CCc3ccc(F)cc3F)cc2)c(=O)c1Br", "T"],
  ["C=CCn1c(SCc2c(C)noc2C)nc2scc(-c3cccs3)c2c1=O", "F"],
  ["N#Cc1cccc(NC(=O)Nc2cccc(-c3cccc(-c4nc5ccc(C(F)(F)F)cc5[nH]4)c3)c2)c1", "T"],
  ["CN(C)Cc1ccc(-c2cccc(NC(=O)c3ccc(Cl)cc3)c2)cc1", "F"]
]}
